Provide the recorded composite z-score for the entries that follow.
- test-details: probe aNOTCH2 binding on compound microarray – biochemical, small-molecule microarray, 635/667 nm fluorescence, primary screen (AID 1121);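 note: score merges feature fluorescence read at 667 nm with its signal to noise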
- condition-details: higher = more signal
Numbers only.

Some solved entries appear below for comparison.
smiles=CC(C)Cc1ccc(CN2CC[C@@H](N)C2)cc1 measured_number=-0.205
smiles=O=C(O)[C@H]1C[C@H]2C(=O)N3CCC[C@H]3C(=O)N2[C@H]1c1ccc(O)cc1 measured_number=-0.176
smiles=CC(C)NC(=O)[C@@H]1c2ccccc2C(=O)N(C(C)C)[C@H]1c1ccc(CO)cc1 measured_number=-0.179

Batch: composite z-score for all items listed.
1. COc1cc(CO)cc(I)c1O[C@H]1C=C(C(=O)NCCO)C[C@@H](NC[C@@H]2CCCO2)[C@@H]1O
2. COc1ccc(CCNC(=O)[C@@]2(c3ccc([N+](=O)[O-])cc3)CC(=O)N(CC34CC5CC(CC(C5)C3)C4)[C@@H]2c2ccc(CO)cc2I)cc1
3. COC(=O)[C@@]1(Cc2ccccc2)[C@H]2c3cc(C(=O)N4CCCC4)n(Cc4ccc(O)c(OC)c4)c3C[C@H]2CN1C(=O)c1ccccc1
4. CC(C)CNC(=O)[C@@]1(Cc2ccccc2I)c2ccccc2C(=O)N(Cc2ccccc2C(F)(F)F)[C@H]1c1ccc(CO)cc1
5. C=CC[C@]12N=C(c3ccc(OCCCO)cc3)O[C@H]1c1ccccc1N(CCS(=O)(=O)c1ccccc1)C2=O

A.
[-0.14, -0.214, 0.302, 0.0344, -0.0692]

Each compound below has a recorded value; state its composite z-score.
1. CC(=O)NCCCC[C@@H]1NC(=O)[C@H]2C[C@@H](C(=O)NCCCCCNC(=O)CS)[C@@H](c3ccc(O)cc3)N2C1=O
2. CC(C)[Si](C#C[Si](C(C)C)(C(C)C)C(C)C)(O[C@H](C)c1cn(Cc2ccccc2)nn1)C(C)C

A.
1. -0.133
2. -0.0956

Could I get composite z-score for every one of these entries?
1. COCCCNC(=O)[C@@]1(Cc2ccccc2CN=[N+]=[N-])N=C(c2ccc(OCCCO)cc2)O[C@H]1c1ccccc1CN=[N+]=[N-]
2. CCOC(=O)C[C@H]1[C@H](OC(=O)c2ccc(-c3ccccc3)cc2)[C@@H](NC(=O)c2ccccc2)c2cc(OCCCO)ccc2N1C(=O)c1ccc2ccccc2n1
3. [N-]=[N+]=Nc1ccccc1C[C@@]1(C(=O)N2CCCCC2)N=C(c2ccc(OCCCO)cc2)O[C@@H]1c1ccccc1
4. C=CCOC(=O)[C@H]1[C@@H]2C(=O)O[C@@H](c3ccccc3)[C@@H](c3ccccc3)N2[C@@H](c2ccc(OCCOC(=O)[C@@H]3C[C@@H]4C(=O)N5CCC[C@H]5C(=O)N4[C@@H]3c3cccc(OCCO)c3)cc2)[C@]12C(=O)Nc1ccc(I)cc12

A.
1. -0.0438
2. -0.0811
3. 0.111
4. 0.117

====

Give measured composite z-score for each item. Keep answers brief.
- target-system: E3 ubiquitin-protein ligase XIAP (Homo sapiens) (UniProt P98170)
- Sequence (P98170 whole entry, looked up): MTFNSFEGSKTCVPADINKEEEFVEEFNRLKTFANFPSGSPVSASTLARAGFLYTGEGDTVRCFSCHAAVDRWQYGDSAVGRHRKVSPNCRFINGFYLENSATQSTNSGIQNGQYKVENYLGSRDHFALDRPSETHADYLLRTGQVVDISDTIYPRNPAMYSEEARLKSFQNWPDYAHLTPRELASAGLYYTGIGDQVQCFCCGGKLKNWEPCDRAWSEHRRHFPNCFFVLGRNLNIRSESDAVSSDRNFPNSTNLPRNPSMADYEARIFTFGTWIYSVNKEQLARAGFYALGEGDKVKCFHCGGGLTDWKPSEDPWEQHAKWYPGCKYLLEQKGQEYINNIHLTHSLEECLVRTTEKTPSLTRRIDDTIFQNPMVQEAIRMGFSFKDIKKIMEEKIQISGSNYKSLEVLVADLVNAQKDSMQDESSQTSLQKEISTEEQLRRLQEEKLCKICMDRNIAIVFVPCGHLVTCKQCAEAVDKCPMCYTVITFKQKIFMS
- test-details: small molecules binding XIAP protein – biophysical, small-molecule microarray, fluorescence 635 nm, primary screen (AID 1181);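 note: score merges 667 nm emission and signal to noise over triplicate slides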
- condition-details: higher = more signal
Give bare numbers.

compound="O=C1OCCC=C[C@H]2OC34C=CCN(Cn5nnc6ccccc65)C(=O)[C@H]3N(CCO)C(=O)[C@@H]4C12 (some centres not stated)" target_system="E3 ubiquitin-protein ligase XIAP (Homo sapiens) (UniProt P98170)" measured_number=-0.146

Report composite z-score for every entry below.
1. CCCCN1CC=CC23O[C@@H]4C=CCOC(=O)[C@@H]4[C@H]2C(=O)N(CCCCCCO)[C@@H]3C1=O (some centres not stated)
2. C[N+](C)(C)CCCCCCNC(=O)[C@H]1C[C@H]2C(=O)N[C@@H](Cc3ccccc3)C(=O)N2[C@H]1c1cccc(OCCO)c1
3. COC(=O)[C@@]1(Cc2ccccc2)[C@H]2c3cc(C(=O)N4CCCC4)n(Cc4c(CO)[nH]cc(C)c4=O)c3C[C@H]2CN1C(=O)c1ccccc1

A.
0.245
-0.144
0.406

List the reported composite z-score of each compound below.
1. OB1C=CCC(CCc2ccccc2)O1 (configuration not stated)
2. COc1ccc([Si](C)(C)[C@@H]2[C@@H](CC(=O)N3Cc4ccccc4C[C@H]3CO)O[C@]3(C(=O)N(Cc4cccc(N5CCC5=O)c4)c4ccccc43)[C@H]2C)cc1
3. O=C1N(CCS(=O)(=O)c2ccccc2)c2ccccc2[C@@H]2OC(c3ccc(OCCCO)cc3)=N[C@]12Cc1ccccc1

A.
[-0.275, 0.0819, 0.0999]

====

- test-details: probe aNOTCH2 binding on compound microarray – biochemical, small-molecule microarray, 635/667 nm fluorescence, primary screen (AID 1121);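 note: score merges feature fluorescence read at 667 nm with its signal to noise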
- condition-details: higher = more signal
Parameter threshold = 0.01. Response is 1 when composite z-score meets or exceeds it, else 0.

Before answering, review these 3 worked examples.
smiles=CC(C)(C)OC(=O)CC[C@]1(C(=O)NCCN2CCOCC2)COC(c2ccc(OCCCO)cc2)=N1 class_label=0
smiles=COCCOC(=O)N1C(=O)[C@@]2(c3ccccc31)[C@H](C(=O)N1CCc3cc(OC)c(OC)cc3C1)[C@H]1C(=O)O[C@H](c3ccccc3)[C@H](c3ccccc3)N1[C@@H]2c1ccc(O)cc1 class_label=1
smiles=NCCCCCNC(=O)[C@H]1C[C@H]2C(=O)N[C@@H](Cc3ccccc3)C(=O)N2[C@H]1c1cccc(OCCO)c1 class_label=1

Q. Check the entry CCOC(=O)C1=CC[C@H]2C(=O)N(c3ccccc3)C(=O)[C@@H]12 : does composite z-score equal or exceed 0.01?
A. 0

====

- test-details: COS7 lysate on small-molecule microarray, probe aHis, 635 nm (AID 1123);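 note: z-score combines 667nm fluorescence intensity with signal-to-noise per printed compound spot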
- condition-details: COS7 cell lysate, fluorescence, higher = more signal
value-kind: composite z-score

Use these answered entries as a reference point.
compound="CN1C(=O)C2C=CC(C(O)c3ccc(F)cc3)N(N(c3ccccc3)c3ccccc3)C2C1=O (stereo not drawn)" value_kind="composite z-score" result=2.82
compound=C=C(CCCC)C(=O)CC[C@H](OC(=O)c1cccnc1)c1ccc(OCCO)cc1 value_kind="composite z-score" result=-0.0099
compound=C=C(C(=O)CC[C@H](OC(C)=O)c1ccccc1OCCO)C(C)C value_kind="composite z-score" result=-0.754
compound="O=C1NC(=O)C2C1C=CC(C(O)c1ccc(I)cc1)N2Nc1ccccn1 (stereo not drawn)" value_kind="composite z-score" result=2.35
compound=COCCOC(=O)N1C(=O)[C@@]2(c3cc(C#CC4=CCCCC4)ccc31)[C@H](C(N)=O)[C@H]1C(=O)O[C@H](c3ccccc3)[C@H](c3ccccc3)N1[C@@H]2c1ccc(O)cc1 value_kind="composite z-score" result=1.83
compound=CC(C)CN1C(=O)[C@@]2(c3ccc([N+](=O)[O-])cc3)CC(=O)N(C3CCCCC3)[C@@H]2c2ccc(CO)cc21 value_kind="composite z-score" result=-0.335
compound="CS(=O)(=O)CCOC(=O)C1=CC(CCCO)=CC(C2CC2)N(Cc2cc3c(cc2Br)OCO3)C=C1C(=O)OCCS(C)(=O)=O (stereo not drawn)" value_kind="composite z-score" result=0.88

Q. Look at this compound and give its reported composite z-score. [N-]=[N+]=NCc1ccccc1[C@H]1OC(c2ccc(OCCCO)cc2)=N[C@@]1(Cc1ccccc1)C(=O)N1CCCCC1
A. 2.32

====

So I've got a bunch of compounds here, and I need their z-score values.
- test-details: JC-1 mitochondrial signal, unstimulated myeloma cells – cell-based, JC-1 fluorescence, RPMI8226, 24 h, 100 nL compound, profiling panel (AID 1169); note: test concentration not given here
- condition-details: JC-1 mitochondrial potential fluorescence, higher = more signal
Give bare numbers.

compound=CC(C)NC(=O)[C@@H]1c2ccccc2C(=O)N(C(C)C)[C@H]1c1ccc(CO)cc1 measured_number=-0.104

Could you report z-score for every entry in the following list?
1. CCOC(=O)C1=CC[C@@H](c2ccccc2)N(S(=O)(=O)c2ccc(C)cc2)[C@H]1c1ccc(CC)cc1
2. CCCC(=O)N(CCc1c[nH]c2ccccc12)[C@@H]1CC(C(=O)NCCO)=C[C@H](Oc2c(I)cc(CO)cc2OC)[C@H]1O
3. COC(=O)C[C@H]1O[C@@H](CCc2ccccc2)[C@@H](C)[C@@H]1[Si](C)(C)c1ccc(OC)cc1

A.
[-0.27, -0.178, -1.12]

Hey, quick one: what's z-score for each of these?
1. COc1cc2c(cc1O)C=[N+](Cc1cc3c(cc1Br)OCO3)CC2
2. CC#CC(=O)Oc1ccc(Br)cc1C=CC(=O)OCC
3. OCCCC1=CC(C2CC2)N(Cc2cccc(OC(F)(F)F)c2)CC1 (stereo unspecified)
4. COc1ccccc1CN1C(=O)c2ccccc2[C@@]2(Cc3ccccc3N(CCCN(C)C)C2=O)[C@@H]1c1ccc(CO)cc1
5. O=C1OCCC=C[C@H]2OC34C=CCN(CCN5CCOCC5)C(=O)[C@H]3N(CCCCCO)C(=O)[C@@H]4C12 (stereo partly specified)
6. CCOC(=O)C1=C[C@@H](C(C)C)N(S(=O)(=O)c2ccc(C)cc2)[C@H]1c1ccccc1F
7. OCC1C=C(/C=C/c2ccccc2)CN1Cc1ccccc1Br (stereo unspecified)
8. CCCCN1CC=CC23O[C@@H]4/C=C\CCCOC(=O)C4[C@H]2C(=O)N(CCCCCO)[C@@H]3C1=O (stereo partly specified)

A.
1. 0.108
2. -0.583
3. 0.48
4. 0.00572
5. -0.152
6. -0.128
7. -0.923
8. 0.163

Working through the 5 compounds below one at a time, give z-score for each.
1. C=CC1c2cc(O)c(OC)cc2CCN1Cc1cccc(OC(F)(F)F)c1 (stereo unspecified)
2. Cc1ccc(S[C@]2(C(=O)NCC(C)C)CC(=O)N(Cc3cc(C(F)(F)F)cc(C(F)(F)F)c3)[C@@H]2c2ccc(CO)cc2)cc1
3. CC(C)CN1C(=O)[C@@]2(c3ccc([N+](=O)[O-])cc3)CC(=O)N(C3CCCCC3)[C@@H]2c2ccc(CO)cc21
4. C[N+](C)(C)CCCC[C@@H]1NC(=O)[C@@H]2C[C@H](C(=O)NCCCCCN)[C@H](c3ccc(O)cc3)N2C1=O
5. O=C1O[C@@H](c2ccccc2)[C@@H](c2ccccc2)N2[C@@H](c3ccccc3OCCO)[C@]3(C(=O)Nc4ccccc43)[C@@H](C(=O)O)[C@H]12

A.
-0.752
0.244
0.603
0.243
0.649
